# TARGET OF ASSAY: CaLsb1
# ASSAY: SPOT peptide array binding signal intensity (averaged, normalized) (arbitrary units (background-subtracted, floor 0; scale differs between SH3 domains)); higher = stronger binding of the SH3 domain to the peptide
MEASURE: SPOT peptide array binding signal intensity
Would you mind answering with just the numeric figure?

// worked examples, SPOT peptide array binding signal intensity included
NNNKMRPHLPPLSSG	3.75
FIRKRAPTPPAPSRS	167
QTREPNEPPPPSPAM	0.25
KMSRSPPRPPSLKII	2.5

The binder listed as RRRRRPHRIERPLSN has a reported SPOT peptide array binding signal intensity of 1.5
